Source: patent US10723741B1

// MIC lookup, one value per entry
Test system: Streptococcus pneumoniae ATCC 49619
experimental protocol: Broth microdilution MIC, S. pneumoniae ATCC 49619
Format: cell-based
measurement conditions: ATCC49619, broth microdilution, 37° C., 20 hours, read-out: MIC S. pneumoniae ATCC 49619
Write down the numeric answer in µg/mL and omit the unit.

O=c1[nH]c(NCc2ccc(Cl)c(Cl)c2)nc2cnn(CC(O)CO)c12 (centres unmarked)
4
CN(C)CC(O)C(O)C(=O)N1CCC(n2ncc3nc(NCc4ccc(Cl)c(Cl)c4)[nH]c(=O)c32)CC1.Cl (centres unmarked)
16
NS(=O)(=O)CCn1ncc2nc(NCc3ccc(Cl)c(Cl)c3)[nH]c(=O)c21
4
CC(C)n1ncc2nc(NCc3ccc(Cl)c(Cl)c3)[nH]c(=O)c21
4
CN1CC(Cn2ncc3nc(NCc4ccc(Cl)c(Cl)c4)[nH]c(=O)c32)CC1=O (centres unmarked)
2
CN1CCC(O)(Cn2ncc3nc(NCc4ccc(Cl)c(Cl)c4)[nH]c(=O)c32)CC1.Cl
8

Prompt line: Return reported MIC; argument: `CN1CCN(CCn2ncc3nc(NCc4ccc(Cl)c(Cl)c4)[nH]c(=O)c32)CC1`
Response line: 4

Prompt line: Moving on to Cn1nc(C2C=CCO2)c2nc(NCc3ccc(Cl)c(Cl)c3)[nH]c(=O)c21 (centres unmarked)
Response line: 16

Prompt line: Proceed to `Cc1ccc(CNc2nc3cnn(C)c3c(=O)[nH]2)cc1C`
Response line: 16

----------
System: Enterococcus faecium ATCC 700221 (VRE)
experimental protocol: Broth microdilution MIC, E. faecium ATCC 700221 (VRE)
Assay type: cell-based
measurement conditions: Enterococcus faecium; broth microdilution, 37° C., 20 hours; read-out: MIC E. faecium ATCC 700221 (VRE)
Description: Bacteria tested are Staphylococcus aureus NRS384 (a methicillin-resistant Staphylococcus aureus, MRSA), Staphylococcus aureus ATCC 29213 (a methicillin-sensitive Staphylococcus aureus, MSSA), Streptococcus pneumoniae ATCC 49619, Enterococcus faecalis ATCC 29212, Enterococcus faecium ATCC 700221 (a vancomycin-resistant enterococcus, VRE), Bacillus subtilis ATCC 6633, and Escherichia coli ATCC 25922. […]
quantity: MIC (µg/mL)
Report the value in µg/mL with no unit label.

Cl.O=c1[nH]c(NCc2ccc(Cl)c(Cl)c2)nc2cnn(CCc3nnc(CO)o3)c12
8
Cl.O=c1[nH]c(NCc2ccc(Cl)c(Cl)c2)nc2cnn(CCOCCN3CCOCC3)c12
8

Prompt line: Provide value of MIC for this record tested with Enterococcus faecium ATCC 700221 (VRE): Cl.Cl.O=c1[nH]c(NCc2ccc(Cl)c(Cl)c2)nc2cnn(C3CCN(CC4CCCCN4)CC3)c12 (stereo not drawn)
Response line: 8

----------
Tested on: Enterococcus faecalis ATCC 29212
experimental protocol: Broth microdilution MIC, E. faecalis ATCC 29212
Assay type: cell-based
measurement conditions: ATCC29212, broth microdilution, 37° C., 20 hours, read-out: MIC E. faecalis ATCC 29212
Each item that follows carries a reported MIC.
Number only, in µg/mL; omit the unit.

Below, 4 molecules whose answers are already recorded.
CC(CO)n1ncc2nc(NCc3ccc(Cl)c(Cl)c3)[nH]c(=O)c21 (stereo not shown)
16
Cl.Cl.O=c1[nH]c(NCc2ccc(Cl)c(Cl)c2)nc2cnn(C3CCN(CC4CCNCC4)CC3)c12
32
Cn1ncc2nc(NCc3ccc(F)c(F)c3)[nH]c(=O)c21
16
[2H]C([2H])(O)COCCn1ncc2nc(NCc3ccc(Cl)c(Cl)c3)[nH]c(=O)c21
4

Prompt line: Consider the molecule shown here: `C[C@@H](O)Cn1ncc2nc(NCc3ccc(Cl)c(Cl)c3)[nH]c(=O)c21` What is its recorded MIC?
Response line: 8

Prompt line: Likewise for `CN(CCn1ncc2nc(NCc3ccc(Cl)c(Cl)c3)[nH]c(=O)c21)C(=O)c1cc(Cl)nnc1O` ?
Response line: 32
